- assay details: qHTS assay for identifying genotoxic compounds that show differential cytotoxicity against isogenic chicken DT40 cell lines with known DNA damage response pathways - Rev3 mutant cell line (AID 743014); note: nearly all actives have a fitted effect of over 55% in size
- condition parameters: chicken DT40 Rev3-/- viability, CellTiter-Glo, 40 h; series mostly up to 68.4 µM
Results filed as inconclusive are left out. Activity calls are given as the source filed them. Calls come from the whole dose curve; as a rule, active = well fitted cell-killing curve with a large enough effect in the repeat runs; inconclusive = weak or mixed curves, or effect the other way; inactive = no such curve, though single readings can be large or run the other way.
Reply using exactly one outcome from 1 (active), -1 (inactive)

Recorded results for 2 molecules are shown here.
- molecule: "CC1(C)CCC[C@]2(C)[C@H]3CC(=O)O[C@]3(C)CC[C@@H]12"
  label value: 1
- molecule: "Cc1cccc(C(=O)O)c1O"
  label value: -1

Assay result, entry "Cc1ccc(C)cc1" — outcome?
-1

Assay result, entry "CCc1oc2ccccc2c1C(=O)c1cc(I)c(O)c(I)c1" — outcome?
1

Assay result, entry "Cc1cc(-c2ccc(N=Nc3cc(S(=O)(=O)O)c4ccccc4c3N)c(C)c2)ccc1N=Nc1cc(S(=O)(=O)O)c2ccccc2c1N" — outcome?
1

Assay result, entry "CNC(=O)c1ccccc1Sc1ccc2c(/C=C/c3ccccn3)n[nH]c2c1" — outcome?
1

Assay result, entry CCCCCCCCCCCC(=O)OCC(C)OC(=O)CCCCC(=O)O (configuration not stated) — outcome?
-1

Assay result, entry "COC(=O)Nc1nc2ccc(C(=O)c3ccccc3)cc2[nH]1" — outcome?
1

Assay result, entry "O=C(O)c1cc(N=Nc2ccc([N+](=O)[O-])cc2)ccc1O" — outcome?
-1

Assay result, entry "CCC(=O)OC(=O)CC" — outcome?
-1

Assay result, entry "Cc1cccc2cccnc12" — outcome?
-1

Assay result, entry "C[C@@H](O)[C@H](N)C(=O)O" — outcome?
-1

---

- assay details: qHTS RealTime-Glo MT Cell Viability Assay in HEK293 cells - 40 hour (AID 1224874); note: % is set by controls: 0 for no effect and ±100 for the full control effect; nearly all actives have a fitted effect of over 50% in size
- condition parameters: RealTime-Glo luminescence; stronger effect = lower value
Records with an inconclusive call do not appear.
Quick reference: max response of the listed items.
Just the number please, in %, no unit attached.

Recorded results for 5 molecules are shown here.
- molecule: "Cc1c(F)c(N2CCNC(C)C2)cc2c1c(=O)c(C(=O)O)cn2C1CC1 (configuration not stated)"
  observed value: 11.8
- molecule: "C=C(C)c1cccc(C(=C)C)c1"
  observed value: -0.359
- molecule: "Cc1cccc(C)c1NC(=O)c1ccc(N)cc1"
  observed value: -2.12
- molecule: "CCCCNS(=O)(=O)c1ccc(C)cc1"
  observed value: -16.6
- molecule: "CC(CO)Oc1ccccc1 (configuration not stated)"
  observed value: -11

Given item NC[C@H]1O[C@H](O[C@H]2[C@H](O[C@@H]3O[C@H](CO)[C@@H](O)[C@H]3O)C(O)[C@H](N)C[C@@H]2N)[C@H](N)[C@@H](O)[C@@H]1O (some centres not stated) , the value recorded as its max response is 4.82

Given item "S=c1nccc[nH]1" , the value recorded as its max response is 13.6

Given item "O[C@@H]([C@H](O)[C@H](O)CBr)[C@H](O)CBr" , the value recorded as its max response is 2.46

Given item "O=C(O)c1ccc2cc(C(=O)O)ccc2c1" , the value recorded as its max response is 7.36

Given item "Sc1nc2ccccc2s1" , the value recorded as its max response is 15.8

Given item "O=S(=O)(O)c1ccc(Nc2nc(Nc3ccc(/C=C/c4ccc(Nc5nc(Nc6ccc(S(=O)(=O)O)cc6)nc(N(CCO)CCO)n5)cc4S(=O)(=O)O)c(S(=O)(=O)O)c3)nc(N(CCO)CCO)n2)cc1" , the value recorded as its max response is -1.51

Given item CCCCCC(C)OC(=O)COc1ccc(Cl)c2cccnc12 (configuration not stated) , the value recorded as its max response is -19.2

---

- target entity: Cytochrome P450 2C19 (Homo sapiens)
- assay details: Cytochrome P450 Family 2 Subfamily C Member 19 (CYP2C19) small molecule antagonists: luciferase reporter qHTS assay (AID 1671197); note: % is set by controls: 0 for no effect and ±100 for the full control effect; nearly all actives have a fitted effect of over 65% in size
- condition parameters: P450-Glo CYP2C19 enzyme, luciferin luminescence, 1 h; series mostly up to 115 µM
- From the text: National Center for Advancing Translational Sciences [NCATS] U.S. Environmental Protection Agency [EPA] National Institutes of Environmental Health Sciences [NIEHS] National Toxicology Program [NTP] U.S. Food and Drug Administration [FDA] Cytochrome P450 (CYP) enzymes are membrane-bound hemeproteins that play a key role in metabolism of drugs and xenobiotics. […] The luciferin products formed are detected with a luciferin detection reagent, and the amount of light produced is proportional to CYP activity. […]
Inconclusive results are not listed. The source made the active and inactive calls. Calls come from the whole dose curve; as a rule, active = well fitted inhibition curve with a large enough effect in the repeat runs; inconclusive = weak or mixed curves; inactive = no such curve, though single readings can be large or run the other way.
Quick reference: activity change, negative = inhibition of the listed items.

Recorded results for 3 molecules are shown here.
- smiles representation: "C[C@H]1NCc2cc(-c3ccc4c(=O)c(C(=O)O)cn(C5CC5)c4c3OC(F)F)ccc21"
  target entity: "Cytochrome P450 2C19 (Homo sapiens)"
  observed value: "-6.59% [at 23.6 µM] (inactive)"
- smiles representation: "CC(C)(C)CC(C)(C)c1ccc(Nc2ccc(C(C)(C)CC(C)(C)C)cc2)cc1"
  target entity: "Cytochrome P450 2C19 (Homo sapiens)"
  observed value: "-21.4% [at 10.5 µM] (inactive)"
- smiles representation: "COc1cc2nc(N3CCN(C(=O)c4ccco4)CC3)nc(N)c2cc1OC"
  target entity: "Cytochrome P450 2C19 (Homo sapiens)"
  observed value: "16.3% [at 23.6 µM] (inactive)"

Now look at this entry.
Given item "CC(C)Cn1cnc2c(N)nc3ccccc3c21" , the value recorded as its activity change, negative = inhibition is 10.1% [at 23.6 µM] (inactive)

---

- assay details: qHTS assay for small molecules that induce genotoxicity in human embryonic kidney cells expressing luciferase-tagged ATAD5 (AID 651632); note: % is set by controls: 0 for no effect and ±100 for the full control effect; nearly all actives have a fitted effect of over 15% in size
- condition parameters: HEK293T ATAD5-luciferase induction, 16 h; series mostly up to 83.3 µM
Records with an inconclusive call do not appear. Active and inactive are the calls of the source. The call rests on the fitted dose curve; in most records, active means well fitted activation curve with a large enough effect in the repeat runs; inconclusive means weak or mixed curves; inactive means no such curve, though single readings can be large or run the other way.
Reply using exactly one outcome from label 1 for active, label 0 for inactive

Recorded results for 3 compounds are shown here.
- compound: "O=C(Oc1ccccc1)Oc1ccccc1"
  label value: "label 0"
- compound: "CC/C=C\\CCCCCO"
  label value: "label 0"
- compound: "CCO[Si](OCC)(OCC)OCC"
  label value: "label 0"

Assay result, entry CCOC(=O)c1ccc(C2CCC(NC[C@H](O)COc3ccc(O)c(NS(C)(=O)=O)c3)CC2)cc1 (stereo not given in full) — outcome?
label 0

Assay result, entry "NC(=O)c1cccc([N+](=O)[O-])c1" — outcome?
label 0

Assay result, entry "C#C[C@]1(O)CC[C@H]2[C@@H]3[C@H](C)CC4=C(CCC(=O)C4)[C@H]3CC[C@@]21C" — outcome?
label 0

---

- assay details: qHTS assay to identify small molecule antagonists of the vitamin D receptor (VDR) signaling pathway - cell viability counter screen (AID 743225); note: nearly all actives have a fitted effect of over 50% in size; note: potency is the fitted concentration of half-maximal effect
- condition parameters: VDR-bla HEK293T viability, CellTiter-Glo luminescence, 16 h; series mostly up to 61 µM
Records with an inconclusive call do not appear. Activity calls are given as the source filed them. The call rests on the fitted dose curve; in most records, active means well fitted cell-killing curve with a large enough effect in the repeat runs; inconclusive means weak or mixed curves, or effect the other way; inactive means no such curve, though single readings can be large or run the other way.
result type: Potency

Recorded results for 5 molecules are shown here.
- molecule: "CCCCCCCC"
  Potency: "inactive"
- molecule: "Fc1ccc(C(c2ccc(F)cc2)N2CCNCC2)cc1"
  Potency: "16.9 µM (active)"
- molecule: "Sc1nc2ccccc2s1"
  Potency: "inactive"
- molecule: "O=C(Nc1ccc2c(O)c(N=Nc3ccc(N=Nc4ccc(S(=O)(=O)O)cc4)cc3)c(S(=O)(=O)O)cc2c1)c1ccccc1"
  Potency: "inactive"
- molecule: "CCO[Si](OCC)(OCC)OCC"
  Potency: "inactive"

Given item "C=C(C)C(=O)OCCCCCCCCCC" , the value recorded as its Potency is inactive

Given item "O=[N+]([O-])c1ccc(F)c(Cl)c1" , the value recorded as its Potency is inactive

---

- target entity: Cytochrome P450 1A2 (Homo sapiens)
- assay details: Cytochrome P450 Family 1 Subfamily A Member 2 (CYP1A2) small molecule antagonists: luciferase reporter qHTS assay (AID 1671199); note: nearly all actives have a fitted effect of over 50% in size; note: potency is the fitted concentration of half-maximal effect
- condition parameters: P450-Glo CYP1A2 enzyme, luciferin luminescence, 1 h; series mostly up to 115 µM
Inconclusive results are not listed. Calls of active or inactive are those of the source. Calls follow the shape of the dose curve; as a rule, active = well fitted inhibition curve with a large enough effect in the repeat runs; inconclusive = weak or mixed curves; inactive = no such curve, though single readings can be large or run the other way.
result type: Potency

Recorded results for 8 compounds are shown here.
- compound: "CCN1C(=O)c2ccccc2C1Nc1ccc(OCCN2CCCCC2)cc1 (stereo not drawn)"
  Potency: "inactive"
- compound: "Nc1ccc(NCCO)c([N+](=O)[O-])c1"
  Potency: "31.7 µM (active)"
- compound: "CCCCCCCCCCCCOC(=O)c1ccc(O)cc1"
  Potency: "12.7 µM (active)"
- compound: "CCCCCc1ccc(Cl)cc1"
  Potency: "inactive"
- compound: "CN1CCN(Cc2cc(-c3ccc4[nH]c(=O)oc4c3)co2)[C@@H](c2ccc(F)cc2)C1"
  Potency: "inactive"
- compound: "O=S(=O)(O)c1ccc(N=Nc2c(O)ccc3ccccc23)cc1"
  Potency: "31.7 µM (active)"
- compound: "Cc1c(C)c2c(c(C)c1O)CC[C@@](C)(CCC[C@H](C)CCC[C@H](C)CCCC(C)C)O2"
  Potency: "inactive"
- compound: "CCCCCCCCCCC[C@@H](C[C@@H]1OC(=O)[C@H]1CCCCCC)OC(=O)[C@H](CC(C)C)NC=O"
  Potency: "24.5 µM (active)"

Given item "CCCC[P+](C)(CCCC)CCCC" , the value recorded as its Potency is inactive

Given item "C#C[C@]1(OC(C)=O)CC[C@H]2[C@@H]3CCC4=C[C@@H](OC(C)=O)CC[C@@H]4[C@H]3CC[C@@]21C" , the value recorded as its Potency is inactive

Given item "O=C(/C=C/c1ccc(O)c(O)c1)O[C@@H](C(=O)O)[C@@H](OC(=O)/C=C/c1ccc(O)c(O)c1)C(=O)O" , the value recorded as its Potency is inactive

Given item "Cc1ccc(C(=O)O)cc1" , the value recorded as its Potency is inactive

Given item "O=c1[nH]c2ccccc2n1CCCN1CCN(C(c2ccccc2)c2ccccc2)CC1" , the value recorded as its Potency is inactive

Given item "O=C(O)c1cc(-c2ccc(F)cc2F)ccc1O" , the value recorded as its Potency is inactive

Given item "Clc1sc(Cl)c(Cl)c1Cl" , the value recorded as its Potency is inactive

Given item "CCn1c2ccccc2c2cc([N+](=O)[O-])ccc21" , the value recorded as its Potency is 1.12 µM (active)

Given item "CCCCCCCCCCOC(=O)c1ccccc1C(=O)OCCCCCCCC" , the value recorded as its Potency is inactive

Given item "O=C(O)c1ccc2cc(C(=O)O)ccc2c1" , the value recorded as its Potency is inactive

Given item "Nc1ccc(C(=O)O)c(O)c1" , the value recorded as its Potency is inactive

Given item "O=c1oc2cc(O)ccc2c2oc3cc(O)ccc3c12" , the value recorded as its Potency is 8.57 µM (active)

Given item "C#C[C@]1(OC(C)=O)CC[C@H]2[C@@H]3CCC4=C/C(=N/O)CC[C@@H]4[C@H]3CC[C@@]21CC" , the value recorded as its Potency is inactive

Given item "Cc1nc(-c2ccc(Cl)cc2)oc1COC(C)(C)C(=O)O" , the value recorded as its Potency is inactive

Given item "CCCc1ccc(OCC(=O)N2CCN(C(=O)COc3ccc(CCC)cc3OC)CC2)c(OC)c1" , the value recorded as its Potency is inactive
